study-system: HasAp (Pseudomonas aeruginosa, UniProt O69756, H32A)
test-details: UV-vis titration
readout-name: pKd
# pKd = -log10(concentration in molar units)

Data request: Look up pKd for this compound: c1c[nH]cn1
Data returned: 2.33
